assay: chemical genetic growth profiling, strain panel (AID 1159580);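 note: tested at 20 µM; growth read once vehicle control cultures reached saturation at 30 °C; 1 = growth at the plate median or of vehicle wells; lower values mean less growth of the strain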; details: S. cerevisiae deletion strains, growth OD, locus YHR079C, strain IRE1 (second series), hits give low values
Hit rate of the full screen: of about 5,500 compounds, about 2,000 (36%) were called active. Not shown: some 18% with an inconclusive outcome. The list shows a part of the results.
Measure: normalized growth
Answer with the value's number alone.

INPUT: Give the value of normalized growth reported for the following: CC1CC2C3CC(F)C4=CC(=O)C=CC4(C)C3(F)C(O)CC2(C)C1C(=O)COC(=O)C(C)(C)C (stereo not given)
OUTPUT: 1.03

INPUT: Give the value of normalized growth reported for the following: COc1ccc(C(=O)CC(=O)c2ccc(C(C)(C)C)cc2)cc1
OUTPUT: 1

INPUT: Give the value of normalized growth reported for the following: CC(=O)O[C@H]1C[C@@H](OC(C)=O)C(C)(C)C2CC(=O)[C@]3(C)C(CC[C@@]4(C)[C@H](c5ccoc5)OC(=O)[C@H]5O[C@]543)[C@]21C (stereo not given in full)
OUTPUT: 1.02

INPUT: Give the value of normalized growth reported for the following: COc1c2ccccc2nc2occc12
OUTPUT: 0.994

INPUT: Give the value of normalized growth reported for the following: CN(C)CCOC(=O)COc1ccc(Cl)cc1
OUTPUT: 1.03

INPUT: Give the value of normalized growth reported for the following: N#C/C(=C\c1cccc(O)c1)C(=O)O
OUTPUT: 1

INPUT: Give the value of normalized growth reported for the following: C[C@@H]1CC2C3C[C@H](F)C4=CC(=O)C=C[C@]4(C)[C@@]3(F)[C@@H](O)C[C@]2(C)[C@@]1(O)C(=O)COC(=O)C(C)(C)C (stereo not given in full)
OUTPUT: 1

INPUT: Give the value of normalized growth reported for the following: CN(C)CCOC(=O)C(c1ccccc1)C1(O)CCCC1 (stereo not given)
OUTPUT: 1.01

INPUT: Give the value of normalized growth reported for the following: COc1ccc(C(=O)N2CCCC2=O)cc1
OUTPUT: 0.991

INPUT: Give the value of normalized growth reported for the following: O=C(O)CCCOc1ccc(Cl)cc1Cl
OUTPUT: 1.01

---

assay: chemical genetic growth profiling, strain panel (AID 1159580);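 note: tested at 20 µM; growth read once vehicle control cultures reached saturation at 30 °C; 1 = growth at the plate median or of vehicle wells; lower values mean less growth of the strain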; details: S. cerevisiae deletion strains, growth OD, locus YOR231W, strain MKK1
About 2,000 (36%) of roughly 5,500 compounds were called active. Not shown: some 18% with an inconclusive outcome. No stated cut-off is given here; in the data, active means normalized growth mostly below about 0.91 (no sharp cut-off); inconclusive means no clear call, values can overlap the other calls; inactive means mostly above about 0.92. This is one part of the list.
Outcome (select one): 1 = active, -1 = inactive

INPUT: Given CCCCCC1C(=O)CCC1CC(=O)OC (stereo not drawn) , state the outcome it received in this test.
OUTPUT: -1

INPUT: Given S=C(NNc1ccccc1)Nc1cc(Cl)ccc1Cl , state the outcome it received in this test.
OUTPUT: -1

INPUT: Given Cc1onc(-c2ccccc2)c1C(=O)Sc1ccc(C(F)(F)F)cn1 , state the outcome it received in this test.
OUTPUT: -1

INPUT: Given O=[N+]([O-])c1ccc(-c2csc(Nc3ccncc3)n2)cc1 , state the outcome it received in this test.
OUTPUT: -1

INPUT: Given S=C(Nc1cc(Cl)c(Cl)cc1Cl)Nc1ccccc1Br , state the outcome it received in this test.
OUTPUT: -1

INPUT: Given C=C1C(C2(C)C=CC(=O)C(C)(C)C2CC(=O)OC)CC[C@@]2(C)[C@H](c3ccoc3)OC(=O)C3OC132 (stereo partly drawn) , state the outcome it received in this test.
OUTPUT: -1

INPUT: Given O=c1cc(-c2ccccc2)oc2cc(O)cc(O)c12 , state the outcome it received in this test.
OUTPUT: -1

INPUT: Given C[C@@H]1CC2C3CCC4=CC(=O)C=C[C@]4(C)[C@@]3(F)[C@@H](O)C[C@]2(C)[C@H]1C(=O)CO (stereo partly drawn) , state the outcome it received in this test.
OUTPUT: -1

INPUT: Given O=c1cc(-c2ccc(O)cc2)oc2cc(O)cc(O)c12 , state the outcome it received in this test.
OUTPUT: -1

INPUT: Given O=c1cc(-c2ccc(O)cc2)oc2cc(O)ccc12 , state the outcome it received in this test.
OUTPUT: -1

INPUT: Given CCCCCC1C(=O)CCC1CC(=O)O (stereo not drawn) , state the outcome it received in this test.
OUTPUT: -1

INPUT: Given Cc1cc(=O)oc2c(O)c(O)ccc12 , state the outcome it received in this test.
OUTPUT: -1

INPUT: Given Cc1ccc(S(=O)(=O)Nc2ccc(Oc3ccc(F)cc3)cc2)cc1 , state the outcome it received in this test.
OUTPUT: -1

INPUT: Given Cc1nc2sccn2c(=O)c1CCN1CCC(=C(c2ccc(F)cc2)c2ccc(F)cc2)CC1 , state the outcome it received in this test.
OUTPUT: -1

INPUT: Given O=c1cc(-c2ccccc2)oc2c(O)c(O)ccc12 , state the outcome it received in this test.
OUTPUT: -1

INPUT: Given O=S(=O)(Nc1ccc(Oc2ccc(Cl)cc2)cc1)c1ccccc1 , state the outcome it received in this test.
OUTPUT: 1

INPUT: Given COc1ccc(CC2CCC(=NOC(=O)c3c(Cl)cccc3Cl)CC2)cc1 (stereo not drawn) , state the outcome it received in this test.
OUTPUT: -1

INPUT: Given Nc1cc(-c2ccncc2)c[nH]c1=O , state the outcome it received in this test.
OUTPUT: -1

INPUT: Given C/C=C/C(=O)N(CC)c1ccccc1C , state the outcome it received in this test.
OUTPUT: -1

INPUT: Given CCN(CCCc1ccccc1)CCCc1ccccc1 , state the outcome it received in this test.
OUTPUT: -1

INPUT: Given COc1cc([C@H]2Oc3cc([C@H]4Oc5cc(O)cc(O)c5C(=O)[C@@H]4O)ccc3O[C@@H]2CO)ccc1O , state the outcome it received in this test.
OUTPUT: -1

INPUT: Given COc1ccc(CC2CCC(=NOC(=O)c3ccc(C(C)(C)C)cc3)CC2)cc1 (stereo not drawn) , state the outcome it received in this test.
OUTPUT: -1

INPUT: Given O=S(=O)(Nc1ccc(Oc2ccc(OC(F)(F)F)cc2)cc1)c1cccc(Cl)c1 , state the outcome it received in this test.
OUTPUT: -1

---

assay: chemical genetic growth profiling, strain panel (AID 1159580);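 note: tested at 20 µM; growth read once vehicle control cultures reached saturation at 30 °C; 1 = growth at the plate median or of vehicle wells; lower values mean less growth of the strain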; conditions: S. cerevisiae deletion strains, growth OD, locus YJL095W, strain BCK1 (second series)
Out of some 5,500 compounds screened, about 2,000 (36%) were called active. Another 18% or so got no clear call; they are omitted. Cut-off read from the data, not from the text of the source: active = normalized growth mostly below about 0.91 (no sharp cut-off); inconclusive = no clear call, values can overlap the other calls; inactive = mostly above about 0.92. This is one part of the list.
Outcome (select one): active, inactive

INPUT: Given C=C[C@H]1CN2CC[C@H]1C[C@@H]2[C@H](O)c1ccnc2ccccc12 , state the outcome it received in this test.
OUTPUT: inactive

INPUT: Given CC1CCC2(OC1)OC1CC3C4CCC5C[C@@H](O)CCC5(C)C4=CCC3(C)C1[C@@H]2C (stereo partly specified) , state the outcome it received in this test.
OUTPUT: inactive

INPUT: Given CC(=O)Nc1ccccc1 , state the outcome it received in this test.
OUTPUT: inactive

INPUT: Given N[C@H](Cc1cc(I)c(Oc2ccc(O)c(I)c2)c(I)c1)C(=O)O , state the outcome it received in this test.
OUTPUT: active

INPUT: Given CCCCC[C@H](CC(=O)NO)C(=O)N[C@H](C(=O)N1CCC[C@H]1CO)C(C)C , state the outcome it received in this test.
OUTPUT: inactive

INPUT: Given O=c1[nH]cnc2[nH]ncc12 , state the outcome it received in this test.
OUTPUT: inactive

---

assay: chemical genetic growth profiling, strain panel (AID 1159580);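 note: tested at 20 µM; growth read once vehicle control cultures reached saturation at 30 °C; 1 = growth at the plate median or of vehicle wells; lower values mean less growth of the strain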; details: S. cerevisiae deletion strains, growth OD, locus YDR001C, strain nth1, hits give low values
Among all 5,500 compounds or so, about 2,000 (36%) were called active. About 18% were inconclusive and are not listed. This is one part of the list.
Measure: normalized growth
Answer with the value's number alone.

INPUT: Give the value of normalized growth reported for the following: CN(CCC(N)CC(=O)N[C@H]1C=CC(n2ccc(N)nc2=O)O[C@@H]1C(=O)O)C(=N)N (some centres undefined)
OUTPUT: 0.965

INPUT: Give the value of normalized growth reported for the following: CCCC(CCC)C(=O)O
OUTPUT: 1.01

INPUT: Give the value of normalized growth reported for the following: CC(CCC(=O)O)[C@H]1CCC2C3CC[C@@H]4C[C@H](O)CC[C@]4(C)C3C[C@H](O)[C@@]21C (some centres undefined)
OUTPUT: 0.984

INPUT: Give the value of normalized growth reported for the following: CC(CCC(=O)O)[C@H]1CCC2C3CC[C@@H]4C[C@H](O)CC[C@]4(C)C3CC[C@@]21C (some centres undefined)
OUTPUT: 1.02

INPUT: Give the value of normalized growth reported for the following: CC(CCC(=O)O)[C@H]1CCC2C3C[C@H](O)[C@@H]4C[C@H](O)CC[C@]4(C)C3CC[C@@]21C (some centres undefined)
OUTPUT: 0.976

INPUT: Give the value of normalized growth reported for the following: CC(=O)OCC(=O)[C@@]1(O)[C@H](OC(C)=O)CC2C3CCC4=CC(=O)C=C[C@]4(C)[C@@]3(F)[C@@H](O)C[C@@]21C (some centres undefined)
OUTPUT: 0.959

INPUT: Give the value of normalized growth reported for the following: Cc1cc(O)c(C=O)c2c1C(=O)Oc1c(COC(=O)/C=C/C(=O)O)c(O)c(C(=O)O)c(C)c1O2
OUTPUT: 0.998

INPUT: Give the value of normalized growth reported for the following: Nc1ccn(C2O[C@H](CO)[C@@H](O)[C@H]2O)c(=O)n1 (some centres undefined)
OUTPUT: 0.977

INPUT: Give the value of normalized growth reported for the following: CCCCS(=N)(=O)CCC(N)C(=O)O (centres undefined)
OUTPUT: 0.99

INPUT: Give the value of normalized growth reported for the following: CC[C@H](CCC(C)[C@H]1CCC2C3CCC4C[C@@H](O)CC[C@]4(C)C3CC[C@@]21C)C(C)C (some centres undefined)
OUTPUT: 0.984

INPUT: Give the value of normalized growth reported for the following: CC(CCC(=O)O)[C@H]1CCC2C3C(C[C@H](O)[C@@]21C)[C@@]1(C)CC[C@@H](O)C[C@H]1C[C@H]3O (some centres undefined)
OUTPUT: 1.02

INPUT: Give the value of normalized growth reported for the following: CC(=O)Nc1ccccc1
OUTPUT: 0.974

INPUT: Give the value of normalized growth reported for the following: c1ccc2nc(N3CCNCC3)ccc2c1
OUTPUT: 0.982

INPUT: Give the value of normalized growth reported for the following: C=C1C2CC[C@@]3(C)[C@H](c4ccoc4)OC(=O)C[C@]13O[C@H]1CC(O)C(C)(C)C(CC(=O)OC)[C@@]21C (some centres undefined)
OUTPUT: 0.962

INPUT: Give the value of normalized growth reported for the following: C=C1C(C2(C)C=CC(=O)C(C)(C)C2CC(=O)OC)CC[C@@]2(C)[C@H](c3ccoc3)OC(=O)C3OC132 (some centres undefined)
OUTPUT: 0.992

INPUT: Give the value of normalized growth reported for the following: COc1cc(OC)c(OC)cc1C=O
OUTPUT: 0.999

INPUT: Give the value of normalized growth reported for the following: COC(=O)CCC(C)[C@H]1CCC2C3C(C[C@H](O)[C@@]21C)[C@@]1(C)CC[C@@H](O)C[C@H]1C[C@H]3O (some centres undefined)
OUTPUT: 1.01

INPUT: Give the value of normalized growth reported for the following: CC1=C2[C@H]3OC(=O)[C@@H](C)[C@@H]3CC[C@@]2(C)C=CC1=O
OUTPUT: 0.98

INPUT: Give the value of normalized growth reported for the following: COC(=O)CCC(C)C1CCC2C3CC[C@@H]4C[C@H](O)CC[C@]4(C)C3C[C@H](O)[C@]12C (some centres undefined)
OUTPUT: 0.996
